- TARGET: GCGR (UniProt P47871 26-477, limits assumed)
- Sequence (P47871 26-477 limits assumed): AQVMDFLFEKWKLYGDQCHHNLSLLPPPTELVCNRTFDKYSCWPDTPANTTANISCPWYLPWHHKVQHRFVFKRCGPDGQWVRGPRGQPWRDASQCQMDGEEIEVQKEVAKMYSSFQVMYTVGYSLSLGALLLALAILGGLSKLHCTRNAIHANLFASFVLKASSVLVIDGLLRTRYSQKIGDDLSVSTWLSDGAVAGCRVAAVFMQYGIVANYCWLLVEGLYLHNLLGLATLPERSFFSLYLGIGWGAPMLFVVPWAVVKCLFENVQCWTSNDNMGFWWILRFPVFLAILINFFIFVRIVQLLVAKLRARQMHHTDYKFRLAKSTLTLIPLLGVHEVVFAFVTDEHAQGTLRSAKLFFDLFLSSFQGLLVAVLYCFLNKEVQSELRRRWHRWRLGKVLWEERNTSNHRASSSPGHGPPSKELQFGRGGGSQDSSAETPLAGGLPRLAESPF
- ASSAY NAME: cell-based or functional assay
So I've got a bunch of binders here, and I need their EC50 value, cellular cAMP assay (Hit Hunter cAMP) values.
Give the value in nM but do not write nM after it.

Inquiry: GET /values?readout=EC50 value, cellular cAMP assay (Hit Hunter cAMP)&item= YXQGTFTSDYSIXLDKXAQXAFIEYLLEGGPSSGAPPPS (Aib at 2; norleucine at 13; Lys 17 ε-amino acylated with Moiety B; Aib at 20; C-terminal amide) [Compound 14]
Reply text: 20.9

Inquiry: GET /values?readout=EC50 value, cellular cAMP assay (Hit Hunter cAMP)&item= YXQGTFTSDYSIXLDKXAQXAFIEYLLEGGPSSGAPPPS (Aib at 2; αMethyl-Leu at 13; Lys 17 ε-amino acylated with Moiety A; Aib at 20; C-terminal amide (Rink amide resin)) [Compound 12]
Reply text: 6.99

Inquiry: GET /values?readout=EC50 value, cellular cAMP assay (Hit Hunter cAMP)&item= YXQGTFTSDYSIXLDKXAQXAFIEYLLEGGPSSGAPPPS (not fully specified; Aib at 2; norvaline at 13; Lys 17 ε-amino acylated with Moiety G; Aib at 20; C-terminal amide) [Compound 18]
Reply text: 0.193
